Source: patent US20250136677A1

- TESTED SYSTEM: T1, canine IL-31 protein (Canine_IL31) (canine)
- T1 chain: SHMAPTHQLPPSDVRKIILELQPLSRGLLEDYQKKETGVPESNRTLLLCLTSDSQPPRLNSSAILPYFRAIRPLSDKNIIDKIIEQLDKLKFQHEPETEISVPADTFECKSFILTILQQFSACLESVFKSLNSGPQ
- PROTOCOL DETAILS: SPR (Biacore), IL-31 on chip, 1:1 fit
Classification field: enter Fulfilled for kon values not below 30000 M⁻¹ s⁻¹, Not fulfilled for values below it.

Task: Could you verify whether the entry Feline 15H05 1.1 FW3 (antibody, V domains shown) VH: QVLLVQSGAEVRTPGASVKIFCKASGYSFTSYTIHWLRQAPAQGLEWMGNINPTSGYTENNQRFKDRLTLTADTSTNTAYMELSSLRSADTAMYYCARWGFKYDGEWSFDVWGAGTTVTVSS VL: EIQMTQSPSSLSASPGDRVTITCRASQGISIWLSWYQQKPGKVPKLLIYKASNLHIGVPPRFSGSGSGTHFTLTITSLQPEDIATYYCLQSQTYPLTFGGGTKLEIK shows kon of no less than 30000 M⁻¹ s⁻¹?
Output: Not fulfilled

Task: Could you verify whether the entry Feline 15H05 VH1 mouse VL (antibody, V domains shown, Heterochimeric antibody; also called felinized 15H05 VH1 with mouse 15H05 VL (heterochimera)) VH: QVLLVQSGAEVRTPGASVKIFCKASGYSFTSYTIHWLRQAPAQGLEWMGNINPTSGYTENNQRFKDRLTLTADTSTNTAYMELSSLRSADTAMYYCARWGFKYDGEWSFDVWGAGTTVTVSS VL: DIQMNQSPSSLSASLGDTITVTCRASQGISIWLSWYQQKPGNIPKVLINKASNLHIGVPPRFSGSGSGTHFTLTITSLQPEDIATYYCLQSQTYPLTFGGGTKLEIN shows kon of no less than 30000 M⁻¹ s⁻¹?
Output: Fulfilled

Task: Could you verify whether the entry Feline 15H05 1.1 FW1_3 (antibody, V domains shown, Printed as 'Feline 15H05 1.1 FW13') VH: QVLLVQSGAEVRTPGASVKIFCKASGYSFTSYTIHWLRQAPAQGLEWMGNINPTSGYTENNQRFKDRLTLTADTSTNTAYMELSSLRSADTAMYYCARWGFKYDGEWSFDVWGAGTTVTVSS VL: DIQMNQSPSSLSASLGDTITVTCRASQGISIWLSWYQQKPGKVPKLLIYKASNLHIGVPPRFSGSGSGTHFTLTITSLQPEDIATYYCLQSQTYPLTFGGGTKLEIK shows kon of no less than 30000 M⁻¹ s⁻¹?
Output: Not fulfilled

Task: Could you verify whether the entry Feline 15H05 1.1 FW1 (antibody, V domains shown) VH: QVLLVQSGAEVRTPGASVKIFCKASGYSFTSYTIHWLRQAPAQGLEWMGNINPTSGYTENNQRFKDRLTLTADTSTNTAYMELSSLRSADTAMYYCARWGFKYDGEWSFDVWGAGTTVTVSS VL: DIQMNQSPSSLSASLGDTITVTCRASQGISIWLSWYQQKPGKVPKLLIYKASNLHIGVPSRFSGSGSGTDFTLTISSLEPEDAATYYCLQSQTYPLTFGGGTKLEIK shows kon of no less than 30000 M⁻¹ s⁻¹?
Output: Not fulfilled

Task: Could you verify whether the entry Feline 15H05 VH3 mouse VL (antibody, V domains shown, Heterochimeric antibody; also called felinized 15H05 VH3 with mouse 15H05 VL (heterochimera)) VH: QVLLVQSGAEVRKPGASVKIFCKASGYSFTSYTIHWLRQAPEQGLEWMGNINPTSGYTENNQRFKDRLTLTADTSTNTAYMELSSLRSADTAMYYCARWGFKYDGEWSFDVWGAGTTVTVSS VL: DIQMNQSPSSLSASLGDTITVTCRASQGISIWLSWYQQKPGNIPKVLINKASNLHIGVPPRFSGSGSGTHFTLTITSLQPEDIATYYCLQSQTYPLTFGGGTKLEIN shows kon of no less than 30000 M⁻¹ s⁻¹?
Output: Fulfilled

Task: Could you verify whether the entry Feline 15H05 1.2 (antibody, V domains shown, Feline heavy and kappa constant regions) VH: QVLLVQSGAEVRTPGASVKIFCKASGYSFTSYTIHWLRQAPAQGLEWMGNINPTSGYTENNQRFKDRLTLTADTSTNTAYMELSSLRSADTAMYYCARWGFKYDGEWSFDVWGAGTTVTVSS VL: EITMTQSPGSLAGSPGQQVTMNCRASQGISIWLSWYQQKPGQHPKLLIYKASNLHIGVPDRFSGSGSGTDFTLTISNLQAEDVASYYCLQSQTYPLTFGGGTKLEIK shows kon of no less than 30000 M⁻¹ s⁻¹?
Output: Fulfilled

Task: Could you verify whether the entry Feline 15H05 2.2 (antibody, V domains shown, Feline heavy and kappa constant regions) VH: QVLLVQSGAEVRTPGASVKIFCKASGYGFTSYTIHWVRQSPAQGLEWMGNINPTSGYTENNQRFKDRLTLTADTSTNTAYMELSSLRSADTAMYYCARWGFKYDGEWSFDVWGAGTTVTVSS VL: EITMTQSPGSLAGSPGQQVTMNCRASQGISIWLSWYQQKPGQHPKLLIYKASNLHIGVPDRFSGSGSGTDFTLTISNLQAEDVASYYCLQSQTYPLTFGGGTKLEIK shows kon of no less than 30000 M⁻¹ s⁻¹?
Output: Not fulfilled

Task: Could you verify whether the entry Feline 15H05 1.1 FW1_2 (antibody, V domains shown) VH: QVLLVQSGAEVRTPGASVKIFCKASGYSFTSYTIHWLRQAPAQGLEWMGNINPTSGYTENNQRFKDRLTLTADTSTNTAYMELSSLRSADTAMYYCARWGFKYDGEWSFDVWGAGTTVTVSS VL: DIQMNQSPSSLSASLGDTITVTCRASQGISIWLSWYQQKPGNIPKVLINKASNLHIGVPSRFSGSGSGTDFTLTISSLEPEDAATYYCLQSQTYPLTFGGGTKLEIK shows kon of no less than 30000 M⁻¹ s⁻¹?
Output: Not fulfilled

Task: Could you verify whether the entry Feline 15H05 1.1 (antibody, V domains shown, Feline heavy and kappa constant regions) VH: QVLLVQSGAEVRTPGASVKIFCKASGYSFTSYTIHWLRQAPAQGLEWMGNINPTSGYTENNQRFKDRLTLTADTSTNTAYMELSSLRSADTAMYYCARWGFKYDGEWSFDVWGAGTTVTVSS VL: EIQMTQSPSSLSASPGDRVTITCRASQGISIWLSWYQQKPGKVPKLLIYKASNLHIGVPSRFSGSGSGTDFTLTISSLEPEDAATYYCLQSQTYPLTFGGGTKLEIK shows kon of no less than 30000 M⁻¹ s⁻¹?
Output: Not fulfilled

Task: Could you verify whether the entry Feline 11E12 1.1 (antibody, V domains shown, Variable chains were subcloned into plasmids with 'the respective feline heavy or kappa constant region'; Made in HEK 293 cells; also called Felinized 11E12 1.1; felinized 11E12) VH: QVLLVQSGAEVKKPGASVKIFCKASGYSFTYYDINWLRQAPEQGLEWMGWIFPGDGGTKYNETFKGRLTLTADTSTNTVYMELSSLRSADTAMYYCARGGTSVIRDAMDYWGQGALVTVSS VL: EIQMTQSPSSLSASPGDRVTITCRASESVDNYGISFMHWYQQKPGKVPKLLIYRASNLESGVPSRFSGSGSGTDFTLTISSLEPEDAATYYCQQSNKDPLTFGQGT shows kon of no less than 30000 M⁻¹ s⁻¹?
Output: Fulfilled
